organism: Rattus norvegicus; experiment: Open TG-GATES - Regimen: Daily Repeat; format: toxicity, organism-based, Sprague-Dawley; set-up: regimen Daily Repeat, gender Male, age 6 weeks; details: in vivo, po, 100 mg/kg, […], tissue Kidney, route gavage, dose level Low, time 28 day

{"columns": ["entry_smiles", "KIDNEY_L"],
 "data": [
  ["CNC(=C[N+](=O)[O-])NCCSCc1ccc(CN(C)C)o1", "1.4 g"],
  ["O=C(OC[C@H]1O[C@@H](OC(=O)c2cc(O)c(O)c(OC(=O)c3cc(O)c(O)c(O)c3)c2)[C@H](OC(=O)c2cc(O)c(O)c(OC(=O)c3cc(O)c(O)c(O)c3)c2)[C@@H](OC(=O)c2cc(O)c(O)c(OC(=O)c3cc(O)c(O)c(O)c3)c2)[C@@H]1OC(=O)c1cc(O)c(O)c(OC(=O)c2cc(O)c(O)c(O)c2)c1)c1cc(O)c(O)c(OC(=O)c2cc(O)c(O)c(O)c2)c1", "1.4 g"]
]}

====

Collected IP values appear next to each entry.
species on record: Rattus norvegicus; test: Open TG-GATES - Regimen: Single; type: toxicity, organism-based, Sprague-Dawley; set-up: regimen Single, gender Male, age 6 weeks; details: in vivo, po, 1000 mg/kg, 24 h, tissue Plasma, route gavage, dose level High
assay_readout: IP (mg/dL)

{"columns": ["compound", "readout_value"],
 "data": [
  ["COC(=O)C1=C(C)NC(C)=C(C(=O)OC)C1c1ccccc1[N+](=O)[O-] [NIFEDIPINE]", 8.6],
  ["CN/C(=N/CCSCc1nc[nH]c1C)NC#N [CIMETIDINE]", 7.7],
  ["Cc1nnc2n1-c1ccc(Cl)cc1C(c1ccccc1Cl)=NC2 [TRIAZOLAM]", 10],
  ["CNC(=C[N+](=O)[O-])NCCSCc1ccc(CN(C)C)o1 [RANITIDINE]", 7.9],
  ["O=C(OC[C@H]1O[C@@H](OC(=O)c2cc(O)c(O)c(OC(=O)c3cc(O)c(O)c(O)c3)c2)[C@H](OC(=O)c2cc(O)c(O)c(OC(=O)c3cc(O)c(O)c(O)c3)c2)[C@@H](OC(=O)c2cc(O)c(O)c(OC(=O)c3cc(O)c(O)c(O)c3)c2)[C@@H]1OC(=O)c1cc(O)c(O)c(OC(=O)c2cc(O)c(O)c(O)c2)c1)c1cc(O)c(O)c(OC(=O)c2cc(O)c(O)c(O)c2)c1 [TANNIC ACID]", 7.8]
]}

====

organism: Rattus norvegicus; assay: Open TG-GATES - Regimen: Daily Repeat; assay type: toxicity, organism-based, Sprague-Dawley; design: regimen Daily Repeat, gender Male, age 6 weeks; conditions: in vivo, po, 300 mg/kg, 72 h, tissue Blood, route gavage, dose level Middle, time 3 day
Reported Ret by item:

{"columns": ["compound", "Ret, %"],
 "data": [
  ["O=C(OC[C@H]1O[C@@H](OC(=O)c2cc(O)c(O)c(OC(=O)c3cc(O)c(O)c(O)c3)c2)[C@H](OC(=O)c2cc(O)c(O)c(OC(=O)c3cc(O)c(O)c(O)c3)c2)[C@@H](OC(=O)c2cc(O)c(O)c(OC(=O)c3cc(O)c(O)c(O)c3)c2)[C@@H]1OC(=O)c1cc(O)c(O)c(OC(=O)c2cc(O)c(O)c(O)c2)c1)c1cc(O)c(O)c(OC(=O)c2cc(O)c(O)c(O)c2)c1 [TANNIC ACID]", 7.7],
  ["CNC(=C[N+](=O)[O-])NCCSCc1ccc(CN(C)C)o1 [RANITIDINE]", 5.1],
  ["CCOc1ccc(NC(C)=O)cc1 [PHENACETIN]", 4.8],
  ["Cc1nnc2n1-c1ccc(Cl)cc1C(c1ccccc1Cl)=NC2 [TRIAZOLAM]", 6.8],
  ["CN/C(=N/CCSCc1nc[nH]c1C)NC#N [CIMETIDINE]", 6],
  ["COC(=O)C1=C(C)NC(C)=C(C(=O)OC)C1c1ccccc1[N+](=O)[O-] [NIFEDIPINE]", 10.7]
]}

Value source: ChEMBL document CHEMBL3885861
